- Test system: NCI-H460 lung
- method.description: NCI tumour cell line growth inhibition, 48 h
readout.type: TGI

# annotated cases, reported TGI shown
compound: CCN=C1Nc2ccccc2-n2c(nn3nc4ccccc4c23)N1CC
study.target: NCI-H460 lung
TGI: > 100 µM
//
compound: Cc1cc2c([nH]1)CSc1cc(S(=O)(=O)c3ccccc3)c(=O)[nH]c1-2
study.target: NCI-H460 lung
TGI: 68.5 µM

Data request, read-out TGI, for C=CCCC1CCCNC1=S (stereo unspecified) > 100 µM

Data request, read-out TGI, for `CCOc1nc(OCC)nc(-c2cccn2-c2ccccc2)n1` > 100 µM

Data request, read-out TGI, for `N#Cc1nn(C(N)=O)c(N)c1C#N` > 100 µM

Data request, read-out TGI, for `COc1ccc2c(c1)CC[C@@H]1[C@@H]2CC[C@]2(C)C(=O)/C(=C/c3ccc(C#N)cc3)C[C@@H]12` > 100 µM

Data request, read-out TGI, for `ClCCC[Si]12OCCN(CCO1)CCO2` > 100 µM

Data request, read-out TGI, for `O=C(CCCn1cnc([N+](=O)[O-])n1)NCCCn1ccnc1[N+](=O)[O-]` > 100 µM

Data request, read-out TGI, for `CC(=O)c1sc2c(c1OC(=O)c1ccc(Cl)cc1Cl)c(=O)n(-c1ccccc1)c(=S)n2-c1ccccc1` 14.3 µM

Data request, read-out TGI, for `COc1ccc2nc(NNC(=O)c3cnccn3)c3cccn3c2c1` 3.88 µM

Data request, read-out TGI, for `CCCCNc1nc2nc[nH]c2c(=O)[nH]1` > 100 µM

----------
- Tested on: HL-60(TB) leukemia
- method.description: NCI tumour cell line growth inhibition, 48 h
readout.type: TGI (µM)
Just the number please, in µM, no unit attached.

molecule: CC(C)C1=C(O)C2=C(C(=O)C1=O)C1(C)CCCC(C)(C)C1CC2O (stereo not given)
TGI, µM: 30.4

Continue with the molecule presented below.
Data request, read-out TGI, for `Cc1c(-c2ccccc2)c(C#N)c2nnn(-c3ccc([N+](=O)[O-])cc3)c(=O)n12` 13.9

----------
- Tested on: SF-268 CNS
- method.description: NCI tumour cell line growth inhibition, 48 h
Consider the following compounds and their measured TGI readings.

# annotated cases, reported TGI shown
chemical.smiles: C[C@H]1COC(c2ccccn2)=N1
study.target: SF-268 CNS
TGI: > 100 µM

chemical.smiles: COc1ccc(/C=C(\C#N)c2ccc(OC)cc2)cc1
study.target: SF-268 CNS
TGI: > 100 µM

chemical.smiles: C=C1C(=O)O[C@H]2[C@H]1CC/C(COC(=O)CCCCCCC(=O)OC/C1=C/CC[C@@]3(C)O[C@H]3[C@H]3OC(=O)C(=C)[C@@H]3CC1)=C\CC[C@@]1(C)O[C@@H]21
study.target: SF-268 CNS
TGI: 14.3 µM

chemical.smiles: Cc1c(C(=O)OCc2ccccc2)[n+](=O)c2ccccc2n1[O-]
study.target: SF-268 CNS
TGI: > 100 µM

Continue with the compound presented below.
Data request, read-out TGI, for `O=C1NC(N/N=C/c2c[nH]c3ccccc23)=N/C1=C\c1cccs1` > 100 µM

----------
- Tested on: UACC-257 melanoma
- method.description: NCI tumour cell line growth inhibition, 48 h
Consider the following compounds and their measured TGI readings.

# annotated cases, reported TGI shown
compound: CCOC(=O)CCC(C(=O)OCC)n1nnc2ccc(Nc3c(C)[n+]([O-])c4ccc(Cl)cc4[n+]3[O-])cc21 (stereo unspecified)
readout.type: TGI
readout.value: 37.1 µM
--
compound: O=C(O)c1cc2ccccc2c(N=Nc2ccc(S(=O)(=O)O)cc2)c1O
readout.type: TGI
readout.value: > 100 µM
--
compound: COc1ccc(/C=C(\C#N)c2nc3ccccc3c(=O)[nH]2)cc1
readout.type: TGI
readout.value: > 100 µM
--
compound: C/C(CCn1[nH]c(=O)ccc1=O)=N\N=C(N)N
readout.type: TGI
readout.value: > 100 µM
--
compound: Cc1cc2c([nH]1)CSc1cc(S(=O)(=O)c3ccccc3)c(=O)[nH]c1-2
readout.type: TGI
readout.value: > 100 µM

Continue with the compound presented below.
What value of TGI on UACC-257 melanoma does `N#C/C(=C\c1cc(F)cc(F)c1)c1ccccn1` have? > 100 µM

----------
- Test system: SK-OV-3 ovarian
- method.description: NCI tumour cell line growth inhibition, 48 h
readout.type: TGI

chemical.smiles: c1ccc(CNCCN2CCNCC2)nc1
TGI: > 100 µM

chemical.smiles: CCOC(=O)/C=C(\C(=O)OCC)n1ccc(=O)n(Cc2cnnn2COCCOC(C)=O)c1=O
TGI: > 100 µM

Continue with the molecule presented below.
What value of TGI on SK-OV-3 ovarian does `O=S1CCN(Cc2ccc(-c3ccc4ncnc(Nc5ccc(OCc6cccc(F)c6)c(Cl)c5)c4c3)o2)CC1` have? > 25 µM

----------
- Test system: MDA-MB-435
- method.description: NCI tumour cell line growth inhibition, 48 h
Consider the following compounds and their measured TGI readings.

chemical.smiles: COc1ccc(-c2cc(-c3ccccc3)nc(/N=C\c3ccccc3)n2)c(O)c1
TGI: > 100 µM
//
chemical.smiles: c1ccc(CNCCN2CCNCC2)nc1
TGI: > 100 µM

Data request, read-out TGI, for `CC(=O)c1sc2c(c1OC(=O)c1ccc(Cl)cc1)c(=O)n(-c1ccccc1)c(=S)n2-c1ccccc1` > 36.8 µM

----------
Consider the following molecules and their measured TGI readings.
- Test system: UACC-257 melanoma
- method.description: NCI tumour cell line growth inhibition, 48 h

molecule: c1ccc(-c2cc(-c3cccs3)c(-c3cccs3)s2)cc1
study.target: UACC-257 melanoma
readout.type: TGI
readout.value: > 100 µM
//
molecule: O=S1CCN(Cc2ccc(-c3ccc4ncnc(Nc5ccc(OCc6cccc(F)c6)c(Cl)c5)c4c3)o2)CC1
study.target: UACC-257 melanoma
readout.type: TGI
readout.value: > 20.5 µM
//
molecule: CN(C)c1ccc(/C=C/c2nc3ccccc3s2)cc1
study.target: UACC-257 melanoma
readout.type: TGI
readout.value: > 100 µM

Data request, read-out TGI, for `Cc1ccc(/C=N/Nc2ccccn2)s1` > 100 µM

Data request, read-out TGI, for `Cn1cc(-c2nc3c(F)cc4[nH]ncc4c3c3c2CCCC3)c(C(F)(F)F)n1` > 100 µM

Data request, read-out TGI, for O=C(O)C1(c2ccccc2)CCCNCC1 (stereo unspecified) > 100 µM

----------
- Test system: SF-268 CNS
- method.description: NCI tumour cell line growth inhibition, 48 h; in the data active = GI50 below about 0.43 µM; inactive = the rest
Hi there, use one of these labels in your reply, thanks! y (active), n (inactive)

Would you please look over these solved cases?
molecule: CS(=O)(=O)Nc1cc(-c2ccc3ncnc(Nc4ccc5c(cnn5Cc5cccc(F)c5)c4)c3c2)cnc1Cl
label.class: y
//
molecule: c1ccc(-c2c(-c3ccccc3)[n+](Cc3ccc4ccccc4c3)c(-c3cccc4ccccc34)n2Cc2ccc3ccccc3c2)cc1
label.class: y
//
molecule: COc1cc(C2=NNC(c3ccc(N(C)C)cc3)C2)cc(OC)c1OC (centres undefined)
label.class: n

Hi team, can someone confirm the assay call for `C=C1C(=O)O[C@H]2[C@H]1CC/C(COC(=O)CCCCCCC(=O)OC/C1=C/CC[C@@]3(C)O[C@H]3[C@H]3OC(=O)C(=C)[C@@H]3CC1)=C\CC[C@@]1(C)O[C@@H]21` ? n

Hi team, can someone confirm the assay call for `COc1ccc(CCn2c3c(c4c(O)cccc42)C(=O)c2ccccc2-3)cc1OC` ? n

Hi team, can someone confirm the assay call for `CCCCCCCCc1cc[n+](CC(=O)c2ccc(Br)cc2)cc1` ? n

Hi team, can someone confirm the assay call for `Cc1cccc2c(C(=O)O[C@H](C(N)=O)[C@]3(C)CO3)cccc12` ? n

Hi team, can someone confirm the assay call for CNc1ccc(C(=O)CC(O)CCC(C)C2OC(=O)CC(O)CC(=O)CC(O)CC(O)CC(O)CC(O)CC3(O)CC(O)C(C(=O)NCCN(C)C)C(CC(OC4OC(C)C(O)C(NC(=O)CN5CCN(CCO)CC5)C4O)/C=C/C=C/C=C/C=C\C=C/C=C/C=C/C2C)O3)cc1 (centres undefined) ? y

Hi team, can someone confirm the assay call for `COc1ccc(/C=C/c2nnc(/C=C/c3ccc(OC)c(OC)c3)o2)cc1OC` ? n

----------
Consider the following compounds and their measured TGI readings.
- Tested on: BT-549 breast
- method.description: NCI tumour cell line growth inhibition, 48 h

# annotated cases, reported TGI shown
compound: Cc1ccc(/C=N/Nc2ccccn2)s1
TGI: > 100 µM

compound: Cc1cc2c([nH]1)CSc1cc(S(=O)(=O)c3ccccc3)c(=O)[nH]c1-2
TGI: > 74.4 µM

compound: CC(C)CCNc1ncnc2[nH]ncc12
TGI: > 100 µM

Data request, read-out TGI, for COc1ccccc1N1C(=O)/C(=C\c2cc(OC)c(OC)c(OC)c2)SC1c1ccccc1 (configuration not stated) > 100 µM

Data request, read-out TGI, for CCCC(c1nnnn1C1CCCCC1)N1CCN(C(=O)c2ccco2)CC1 (configuration not stated) > 100 µM

Data request, read-out TGI, for `N#C/C(=N/Nc1nc[nH]c1C(N)=O)C(=O)Nc1ccccc1` > 100 µM

Data request, read-out TGI, for `COc1cc(/C=N\O)cc(/C=N/O)c1O` > 100 µM

Data request, read-out TGI, for `CC(C)(/C=N\O)NO` > 10 µM
